Test system: A673/TR/shEF
Assay: cell viability (LOESS-normalised, relative to median of negative controls) (log2 ratio); higher = more viable cells (less compound effect), active = hit call of the paper (over 3 MAD below the median)
Conditions: 0.025 µM; library screen: screen1; EWS-FLI1 expression: low (doxycycline-induced shRNA knockdown); treatment time: 72 h
The campaign covered roughly 3,200 compounds. About 300 (9.4%) showed activity. For the sample, actives were picked, then their nearest neighbours and some compounds at random.
OUTCOME_MEASURE: cell viability (log2)

1. O=P(O)(O)C(O)c1ccc2ccccc2c1 (stereo unspecified)    0.0649
2. COc1cc(/C=C(\C#N)C(N)=O)cc(CSc2nc3ccccc3s2)c1O    0.0154
3. CC(C)n1cnc2c(NCc3ccccc3)nc(NCCO)nc21    -0.0915
4. O=c1c(-c2ccc(O)cc2)coc2cc(O)ccc12    -0.0297
5. O=[N+]([O-])c1ccc(Oc2ccc(Br)cc2)c(C(O)[P+](=O)O)c1 (stereo unspecified)    0.0701
6. CC(C)C[C@H](NC(=O)[C@H](CCC(=O)O)NC(=O)CNC(=O)c1ccc(/C=C/C(=O)O)cc1)C(N)=O    0.0951
7. N#CC(C#N)=C(N)/C(C#N)=C/c1ccc2[nH]ccc2c1    0.0769
8. COCc1cc(O)c(O)c(O)c1-c1c(COC)cc(O)c(O)c1O    0.0379
9. N#CC(C#N)=C(N)/C(C#N)=C/c1cc(O)c(O)c(O)c1    -0.0659
10. COc1cc2ncc(-c3ccccc3)nc2cc1OC    -0.00441
11. Cc1ccc(NC(=O)c2cccc(N(C)C)c2)cc1NC(=O)c1ccc(O)cc1    -0.0357
